System: MILI (PIWIL2) piRISC loaded with L1MC piRNA (26 nt);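 note: 1 nM active piRISC with 0.1 nM target library at 33 °C single turnover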
Assay: pre-steady-state target cleavage rate (min^-1); guide: L1MC piRNA 5'p-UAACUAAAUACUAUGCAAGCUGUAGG; MIWI and MILI are mouse PIWI proteins and EfPiwi is from a freshwater sponge; tags in brackets are library labels; higher = faster piRNA-guided slicing of the target
Conditions: auxiliary factor: 500 nM mouse GTSF1
Kindly note that classification relies on pre-steady-state target cleavage rate with these boundaries: range A = under 0.02, range B = from 0.02 up to 0.2, range C = 0.2 and over

Consider the following illustrative entries.
UCCUGGAUGUGCUUCGUUAGUAUUUAGUUA: range A
UCCUCCUACAGCUUGCCUAGUAUUUAGUUA: range C
UCCUGGAACAGCUUGCAUAGUAUUUAUGUUA: range B
UCCUGGAUGUCGAAGCAUAGUACUUAGUUA: range A
UCCUGGAUGAGCUGUGCAUAGUAUUUAGUUA: range B
UCCUGGUACAGCUUGCAUAGUAUUUAUUA: range B
UCCUGGAUCGCUUGCAUAGUAUUUAGUUA: range C
UCCUGGAUGAGCUUGCAAAGUAUUAAGUUA: range B

// query Which band does "UCCUGGUACAGCUUGCAUGGUAUUUAGUUA" fall in?
// result range C

// query Which band does "UCCUGCUACACCUUGCAUUGUAUUUAGUUA" fall in?
// result range B

// query Which band does "UCCUGGAUGAGCUUGCAUACUAUUUACUUA" fall in?
// result range A

// query Which band does "UCCUGGAUCACCUUGCAUAGUUUUUAGUUA" fall in?
// result range A

// query Which band does "UCCUGCUACAGCUUGCAUAGUAAAAACAAA" fall in?
// result range B

These measurements were taken from the supplement of paper PMC10338343.
